Origin of the recorded values: patent US20260176289A1

- experimental_target: KRAS-G13D (Homo sapiens, UniProt P01116, G13D)
- Sequence (P01116 with tags, fused parts or gaps isoform P01116-2 G13D): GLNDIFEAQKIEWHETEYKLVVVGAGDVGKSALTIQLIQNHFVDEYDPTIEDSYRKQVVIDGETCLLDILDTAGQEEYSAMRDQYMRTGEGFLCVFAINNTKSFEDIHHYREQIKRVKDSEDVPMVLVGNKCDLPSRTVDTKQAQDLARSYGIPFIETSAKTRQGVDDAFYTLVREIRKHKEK
- test_details: SOS-catalyzed nucleotide exchange assay (Procedure A, TR-FRET), KRAS-G13D
- Type: biochemical
- setup_conditions: nucleotide exchange, Procedure A; read-out: KRAS G13D GNE IC50
pIC50: −log10 of the molar value.
# pIC50 listing for each entry below

| compound | experimental_target | pIC50 |
| --- | --- | --- |
| C=C(C)c1c(C)cc2[nH]ncc2c1-c1nccc2c1sc1nc(OC[C@@]34CCCN3C[C@H](F)C4)nc(N3CCOC[C@@](C)(O)C3)c12 | KRAS-G13D (Homo sapiens, UniProt P01116, G13D) | 7.61 |
| Cn1c2nc(OC[C@@]34CCCN3C[C@H](F)C4)nc(N3CCOC[C@@](C)(O)C3)c2c2ccnc(-c3c(C(F)F)c(Cl)cc4[nH]nc(C#N)c34)c21 (single isomer, unassigned) | KRAS-G13D (Homo sapiens, UniProt P01116, G13D) | 5.58 |
| Cc1cc2[nH]ncc2c(-c2nccc3c2sc2nc(OC[C@@]45CCCN4C[C@H](F)C5)nc(N4CCOCC4)c23)c1C(F)(F)F | KRAS-G13D (Homo sapiens, UniProt P01116, G13D) | 5.88 |
| Cc1cc2[nH]ncc2c(-c2nccc3c2sc2nc(OC[C@@]45CCCN4C[C@H](F)C5)nc(N4CCOC[C@@](C)(O)C4)c23)c1-c1ccsc1 | KRAS-G13D (Homo sapiens, UniProt P01116, G13D) | 6.42 |
| C#Cc1cc(F)cc2cc3[nH]ncc3c(-c3nccc4c3sc3nc(OC[C@@]56CCCN5C[C@H](F)C6)nc(N5CCOC[C@@](C)(O)C5)c34)c12 | KRAS-G13D (Homo sapiens, UniProt P01116, G13D) | 7.85 |
| Cc1cc2[nH]ncc2c(-c2nccc3c2sc2nc(OC[C@@]45CCCN4C[C@H](F)C5)nc(N4CCOC[C@@](C)(O)C4)c23)c1C1CCCC1 | KRAS-G13D (Homo sapiens, UniProt P01116, G13D) | 6.03 |

====

Measured pIC50 accompanies every entry in the list below.
- experimental_target: KRAS-G12V (Homo sapiens, UniProt P01116, G12V)
- Sequence (P01116 with tags, fused parts or gaps isoform P01116-2 G12V): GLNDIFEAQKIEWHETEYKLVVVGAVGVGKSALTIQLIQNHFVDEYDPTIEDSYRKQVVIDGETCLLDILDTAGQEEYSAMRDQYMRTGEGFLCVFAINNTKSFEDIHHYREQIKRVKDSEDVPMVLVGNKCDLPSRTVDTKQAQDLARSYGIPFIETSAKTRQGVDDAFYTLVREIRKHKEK
- test_details: SOS-catalyzed nucleotide exchange assay (Procedure A, TR-FRET), KRAS-G12V
- Type: biochemical
- setup_conditions: nucleotide exchange, read-out: KRAS G12V GNE IC50
pIC50: −log10 of the molar value.
experimental_endpoint: pIC50

| compound | numeric_readout |
| --- | --- |
| COC1CC2(C1)CN(C[C@@]1(COc3nc(N4CCOC[C@@](C)(O)C4)c4c(n3)sc3c(-c5c(C6(F)CC6)c(Cl)cc6[nH]ncc56)nccc34)CC1(F)F)C2 [Ex-263] | 7.90 |
| Cc1cc2[nH]ncc2c(-c2nccc3c2sc2nc(OC[C@@]45CCCN4C[C@H](F)C5)nc(NCC4COC4)c23)c1C(F)(F)F [Ex-186] | 6.36 |
| Cc1cc2[nH]ncc2c(-c2nccc3c2sc2nc(OC[C@@]45CCCN4C[C@H](F)C5)nc(NC4(CO)COC4)c23)c1C(F)(F)F [Ex-185] | 6.50 |
| Cc1cc2[nH]ncc2c(-c2nncc3c2sc2nc(OC[C@@]45CCCN4C[C@H](F)C5)nc(N4CCOC[C@@](C)(O)C4)c23)c1C1CC1 [Ex-279] | 7.80 |
| Cc1cc2[nH]ncc2c(-c2nccc3c2sc2nc(OC[C@@]45CCCN4C[C@H](F)C5)nc(N4CCOC[C@@](C)(O)C4)c23)c1C(C)(C)C#N [Ex-154] | 6.99 |
| COCC12CC(CN1C[C@@]1(COc3nc(N4CCOC[C@@](C)(O)C4)c4c(n3)sc3c(-c5c(C6(F)CC6)c(Cl)cc6[nH]ncc56)nccc34)CC1(F)F)C2 [Ex-258] | 7.60 |
| CCc1cc2[nH]ncc2c(-c2nccc3c2sc2nc(OC[C@@]45CCCN4C[C@H](F)C5)nc(N4CCOC[C@@](C)(O)C4)c23)c1C1CC1 [Ex-48] | 7.54 |
| C[C@@]1(O)COCCN(c2nc(OC[C@@]34CCCN3CC(=C(F)F)C4)nc3sc4c(-c5c(C6(F)CC6)c(Cl)cc6[nH]ncc56)nccc4c23)C1 [Ex-272] | 7.71 |
| CO[C@H]1C[C@@H](COc2nc(N3CCOC[C@@](C)(O)C3)c3c(n2)sc2c(-c4c(C5CC5)c(C(F)(F)F)cc5[nH]ncc45)nccc23)N(C)C1 [Ex-84] | 6.07 |
| Cc1cc2[nH]ncc2c(-c2nccc3c2sc2nc(O[C@@H](C)[C@@H]4CCCN4C)nc(N4CCOC[C@@](C)(O)C4)c23)c1C(F)(F)F [Ex-204] | 6.62 |
| Cc1cc2[nH]ncc2c(-c2nccc3c2sc2nc(OC[C@@]45CCCN4C[C@H](F)C5)nc(N4CCOC[C@@](C)(O)C4)c23)c1C(C)(F)F [Ex-41] | 6.78 |
| CC1(O)COCCN(c2nc(OCC3(CN4CC5C(F)C5C4)CC3(F)F)nc3sc4c(-c5c(C6CC6)c(Cl)cc6[nH]ncc56)nccc4c23)C1 (stereo not drawn) [Ex-214] | 6.61 |
